Catalogue of EC50 readings, one per entry.
System: HBV viral production from HepAD38 cells
test details: Activity of test compounds on viral production from HepAD38 cells (viral load by qPCR of HBV core sequence in supernatant)
Type: cell-based
study conditions: Hepatitis B virus, 120 h, 5 days incubation, HBV DNA in supernatant by qPCR, top concentration 10 μM, read-out: Viral Load EC50 Activity range

Here's what some known entries look like.
CN1[C@H](C(=O)Nc2ccc(F)c(Cl)c2)C[C@H](c2cc(-c3ccnn3C)cs2)NS1(=O)=O (relative stereo)	< 1000 nM
CN1[C@@H](C(=O)Nc2ccc(F)c(Cl)c2)C[C@@H](c2ccon2)NS1(=O)=O	> 5000 nM
CCOCCN1[C@H](C(=O)Nc2ccc(F)c(Cl)c2)C[C@H](c2nccs2)NS1(=O)=O (relative stereo)	< 1000 nM

Lab note: molecule CN1[C@H](C(=O)Nc2ccc(F)c(Cl)c2)C[C@H](c2ccc(-c3cncn3C)s2)NS1(=O)=O tested on HBV viral production from HepAD38 cells; recorded EC50 was < 1000 nM

Lab note: molecule CN1[C@H](C(=O)Nc2ccc(F)c(Cl)c2)C[C@H](c2ccc(C(N)=O)cc2)NS1(=O)=O tested on HBV viral production from HepAD38 cells; recorded EC50 was < 1000 nM

Lab note: molecule CN1[C@@H](C(=O)Nc2ccc(F)c(Cl)c2)C[C@H](c2ncc(-c3cn(C)cn3)s2)NS1(=O)=O [HBV-CSU-276-Trans-ISO-I] tested on HBV viral production from HepAD38 cells; recorded EC50 was < 1000 nM

Lab note: molecule Cc1nn(C)c(C)c1-c1csc(C2CC(C(=O)Nc3ccc(F)c(Cl)c3)N(C)S(=O)(=O)N2)c1 (racemic) tested on HBV viral production from HepAD38 cells; recorded EC50 was < 1000 nM

Lab note: molecule CN1[C@@H](C(=O)Nc2ccc(F)c(Cl)c2)C[C@@H](c2cc(-c3ccccn3)cs2)NS1(=O)=O tested on HBV viral production from HepAD38 cells; recorded EC50 was 1000 to 5000 nM

Lab note: molecule Cc1sc([C@H]2C[C@@H](C(=O)Nc3ccc(F)c(Cl)c3)N(C)S(=O)(=O)N2)cc1-c1cnn(C)c1 tested on HBV viral production from HepAD38 cells; recorded EC50 was < 1000 nM

Lab note: molecule CN1[C@@H](C(=O)Nc2ccc(F)c(Cl)c2)C[C@@H](c2cc(-c3nncn3C)cs2)NS1(=O)=O tested on HBV viral production from HepAD38 cells; recorded EC50 was > 5000 nM

Lab note: molecule CN1[C@@H](C(=O)Nc2ccc(F)c(Cl)c2)C[C@@H](c2ccc(-c3ccccc3)s2)NS1(=O)=O (relative stereo) tested on HBV viral production from HepAD38 cells; recorded EC50 was 1000 to 5000 nM

Lab note: molecule CN1[C@@H](C(=O)Nc2ccc(F)c(Cl)c2)C[C@@H](c2cc(-c3cn[nH]c3)cs2)NS1(=O)=O tested on HBV viral production from HepAD38 cells; recorded EC50 was < 1000 nM

Lab note: molecule CN1[C@H](C(=O)Nc2ccc(F)c(Cl)c2)C[C@H](c2ccc(-c3cn[nH]c3)s2)NS1(=O)=O tested on HBV viral production from HepAD38 cells; recorded EC50 was < 1000 nM

Lab note: molecule CN1[C@H](C(=O)Nc2ccc(F)c(Cl)c2)C[C@H](c2ccc(-c3ccc(C(F)(F)F)nc3)s2)NS1(=O)=O tested on HBV viral production from HepAD38 cells; recorded EC50 was < 1000 nM

Lab note: molecule CN1[C@H](C(=O)Nc2ccc(F)c(Br)c2)C[C@H](c2ncc(Br)s2)NS1(=O)=O tested on HBV viral production from HepAD38 cells; recorded EC50 was < 1000 nM

Lab note: molecule CN1[C@@H](C(=O)Nc2ccc(F)c(Cl)c2)C[C@@H](c2ccc(-c3ccc(F)cc3)s2)NS1(=O)=O tested on HBV viral production from HepAD38 cells; recorded EC50 was 1000 to 5000 nM

Lab note: molecule CN1C(C(=O)Nc2ccc(F)c(Cl)c2)CC(c2cc(-c3nncn3C)cs2)NS1(=O)=O (racemic) tested on HBV viral production from HepAD38 cells; recorded EC50 was < 1000 nM

Lab note: molecule CN1[C@@H](C(=O)Nc2cc(F)c(F)c(F)c2)C[C@@H](c2ccc(F)cc2)NS1(=O)=O tested on HBV viral production from HepAD38 cells; recorded EC50 was > 5000 nM

Lab note: molecule CN1[C@H](C(=O)Nc2ccc(F)c(Cl)c2)C[C@H](c2ccccn2)NS1(=O)=O tested on HBV viral production from HepAD38 cells; recorded EC50 was < 1000 nM

Lab note: molecule CN1[C@H](C(=O)Nc2ccc(F)c(Cl)c2)C[C@@H](c2ccc(-c3cn(C)cn3)s2)NS1(=O)=O [HBV-CSU-266-Trans-ISO-II] tested on HBV viral production from HepAD38 cells; recorded EC50 was 1000 to 5000 nM

Lab note: molecule COCCN1C(C(=O)Nc2ccc(F)c(Cl)c2)CC(c2nccs2)NS1(=O)=O (racemic) tested on HBV viral production from HepAD38 cells; recorded EC50 was < 1000 nM
